Molecular target: DYRK1A (Rattus norvegicus)
Assay: Inhibition of DYRK1A (unknown origin)
pIC50: −log10 of the molar value.
property.label: pIC50

Worked cases, pIC50 given:
> print(dat)
                           query.smiles               tested.target  meas.value
1    COc1cc(OC)cc(-c2cn3cc(Cl)ccc3n2)c1  DYRK1A (Rattus norvegicus)      < 5.00
2  COc1cc(-c2cn3cc(Cl)ccc3n2)cc(OC)c1OC  DYRK1A (Rattus norvegicus)      < 5.00

From here, focus on the item given below.
-- ask Requested field: pIC50. Item: NC(=O)c1cc(-c2cn3cc(-c4ccc([N+](=O)[O-])cc4)ccc3n2)ccc1O
-- reply < 5.00
